target: Falcipain-3 (Plasmodium falciparum)
testProtocol: Falcipain-3 enzymatic assay (assay 1)
Assay type: biochemical
pIC50: −log10 of the molar value. Where a name gives a salt, the structure may show the parent alone.
measureName: pIC50

Req: Look up and report measured pIC50 for this entry: CN1CCN(C2CCN(Cc3ccc(C(=O)NN(c4nc(C#N)ncc4Br)C4CCCCC4)cc3)CC2)CC1 [Example 17, trifluoroacetate]
Resp: 7.82 to 8.60

Req: In one line, give reported pIC50 of the entry CN(CCC(O)c1ccccc1)Cc1ccc(C(=O)NN(c2nc(C#N)ncc2Cl)C2CCCC2)cc1 (centres unmarked) [Example 59, trifluoroacetate] .
Resp: 8.60 to 9.00

Req: Look up pIC50 of C[C@H]1CCC[C@H]1N(NC(=O)c1ccc(CN2CCN(C)CC2)cc1)c1nc(C#N)ncc1Br and report it.
Resp: 6.82 to 7.82

Req: Specify reported pIC50 for the compound shown: CN1CCCC(CN2CCN(Cc3ccc(C(=O)NN(c4nc(C#N)ncc4Br)C4CCCCC4)cc3)CC2)C1 (centres unmarked) [Example 25, trifluoroacetate]
Resp: 7.82 to 8.60

Req: Query pIC50 for CN1CCC(CN2CCN(Cc3ccc(C(=O)NN(c4nc(C#N)ncc4Cl)C4CCOCC4)cc3)CC2)CC1 [Example 35, trifluoroacetate]
Resp: 6.82 to 7.82

Req: Fill in reported pIC50 for this entry: CN1CCN(Cc2ccc(-c3cncc(C(=O)NN(c4nc(C#N)ncc4Br)C4CCCC4)c3)cc2)CC1 [Example 45, trifluoroacetate]
Resp: 7.82 to 8.60

Req: Supply reported pIC50 belonging to this compound: CCN(C)Cc1ccc(C(=O)NN(c2nc(C#N)ncc2Cl)C2CCCC2)cc1 [Example 74, trifluoroacetate]
Resp: 6.82 to 7.82

Req: Input CC(C)N(Cc1ccc(C(=O)NN(c2nc(C#N)ncc2Cl)C2CCCC2)cc1)C1CCCCC1 [Example 75, trifluoroacetate] , output reported pIC50.
Resp: 7.82 to 8.60

Req: Identify the reported pIC50 for the following entry. CN(Cc1ccc(C(=O)NN(c2nc(C#N)ncc2Cl)C2CCCC2)cc1)CC1OCCO1 [Example 83, trifluoroacetate]
Resp: 8.60 to 9.00

Req: Quote pIC50 reported for CN1CCCC(CN2CCN(Cc3ccc(C(=O)NN(c4nc(C#N)ncc4Br)C4CCOCC4)cc3)CC2)C1 (centres unmarked) [Example 31, trifluoroacetate] please.
Resp: 6.82 to 7.82

Req: Given the compound CCN(CC)Cc1ccc(C(=O)NN(c2nc(C#N)ncc2Cl)C2CCCC2)cc1 [Example 66, trifluoroacetate] , write its reported pIC50.
Resp: 7.82 to 8.60

Req: Entry N#Cc1ncc(Br)c(N(NC(=O)c2ccc(CN3CCC(N4CCOCC4)CC3)cc2)C2CCCCC2)n1 needs its pIC50 filled in; supply it.
Resp: 7.82 to 8.60

Req: Please give the documented pIC50 of CN1CCCC(CN2CCN(Cc3ccc(C(=O)NN(c4nc(C#N)ncc4Br)C4CCCC4)cc3)CC2)C1 (centres unmarked) [Example 8, trifluoroacetate]
Resp: 7.82 to 8.60

Req: Kindly indicate its recorded pIC50. Item: CN(C)Cc1ccc(C(=O)NN(c2nc(C#N)ncc2Cl)C2CCCC2)cc1 [Example 54, trifluoroacetate]
Resp: 7.82 to 8.60

====

target: Falcipain-3 (Plasmodium falciparum)
testProtocol: Falcipain-3 enzymatic assay (assay 1)
Type: biochemical
Structures can show the parent of a compound that is named as a salt.
measureName: IC50

Req: Fill in IC50 for record CN1CCN(Cc2ccc(C(=O)NN(c3nc(C#N)ncc3Cl)C3CCOCC3)cc2)CC1 [Example 67, trifluoroacetate]
Resp: 2.5 to 15 nM

Req: Specify reported IC50 for the compound shown: CC1CCC(N(NC(=O)c2ccc(CN3CCN(C)CC3)cc2)c2nc(C#N)ncc2Br)C1 (mixture of isomers) [Example 26, trifluoroacetate]
Resp: 15 to 150 nM

Req: Provide measured IC50 value, entry: CCCCCCN(C)Cc1ccc(C(=O)NN(c2nc(C#N)ncc2Cl)C2CCCC2)cc1
Resp: 2.5 to 15 nM

Req: Check the records and state IC50 for CN1CCN(C(=O)C2CCN(Cc3ccc(C(=O)NN(c4nc(C#N)ncc4Br)C4CCCC4)cc3)CC2)CC1 [Example 9, trifluoroacetate]
Resp: 2.5 to 15 nM

Req: Fill in IC50 for record CC(C)N(Cc1ccc(C(=O)NN(c2nc(C#N)ncc2Cl)C2CCCC2)cc1)C(C)C [Example 72, trifluoroacetate]
Resp: 2.5 to 15 nM

Req: Consider the compound CN(CCC1OCCO1)Cc1ccc(C(=O)NN(c2nc(C#N)ncc2Cl)C2CCCC2)cc1 [Example 61, trifluoroacetate] and give its recorded IC50.
Resp: 2.5 to 15 nM

Req: Indicate the recorded IC50 value for this compound: CN(CCO)Cc1ccc(C(=O)NN(c2nc(C#N)ncc2Cl)C2CCCC2)cc1 [Example 58, trifluoroacetate]
Resp: 1 to 2.5 nM

Req: Provide only the value of recorded IC50 for CN(Cc1ccc(C(=O)NN(c2nc(C#N)ncc2Cl)C2CCCC2)cc1)CC(O)CO (centres unmarked) [Example 76, trifluoroacetate]
Resp: 2.5 to 15 nM

Req: Using the record for CN1CCN(Cc2cccc(-c3cncc(C(=O)NN(c4nc(C#N)ncc4Br)C4CCCCC4)c3)c2)CC1 [Example 47, trifluoroacetate] , state its measured IC50.
Resp: 2.5 to 15 nM

Req: Kindly indicate its recorded IC50. Item: C[C@@H]1CCC[C@H]1N(NC(=O)c1ccc(CN2CCN(C)CC2)cc1)c1nc(C#N)ncc1Br
Resp: 2.5 to 15 nM

Req: Please supply the value of reported IC50 for the item CCCCN(C)Cc1ccc(C(=O)NN(c2nc(C#N)ncc2Cl)C2CCCC2)cc1 [Example 57, trifluoroacetate]
Resp: 2.5 to 15 nM

Req: Input CN1CCN(c2ncc(C(=O)NN(c3nc(C#N)ncc3Cl)C3CCCC3)s2)CC1 [Example 77, trifluoroacetate] , output reported IC50.
Resp: 15 to 150 nM

Req: Please give the documented IC50 of CCCN(C)Cc1ccc(C(=O)NN(c2nc(C#N)ncc2Cl)C2CCCC2)cc1 [Example 55, trifluoroacetate]
Resp: 2.5 to 15 nM

Req: Specify IC50 for CC(C)(C)N(CCO)Cc1ccc(C(=O)NN(c2nc(C#N)ncc2Cl)C2CCCC2)cc1 [Example 82, trifluoroacetate] and stop.
Resp: 2.5 to 15 nM

====

Provide the reported pIC50 of each item.
target: Falcipain-3 (Plasmodium falciparum, UniProt Q8IIL0)
Sequence (Q8IIL0 243-492): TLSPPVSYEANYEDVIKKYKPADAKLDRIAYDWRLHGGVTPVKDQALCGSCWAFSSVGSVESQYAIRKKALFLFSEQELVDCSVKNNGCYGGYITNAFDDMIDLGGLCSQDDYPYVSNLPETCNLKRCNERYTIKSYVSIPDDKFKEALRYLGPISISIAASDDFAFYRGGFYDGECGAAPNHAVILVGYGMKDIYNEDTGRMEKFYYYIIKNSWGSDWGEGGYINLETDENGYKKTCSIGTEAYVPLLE
testProtocol: Falcipain-3 enzymatic assay (assay 1)
Assay type: biochemical
pIC50: −log10 of the molar value. Counter-ions that a name gives are not always drawn.

Req: For Falcipain-3 (Plasmodium falciparum, UniProt Q8IIL0), give pIC50 of the listed compound: CN1CCN(C(=O)C2CCN(Cc3ccc(C(=O)NN(c4nc(C#N)ncc4Br)C4CCCCC4)cc3)CC2)CC1 [Example 22, trifluoroacetate]
Resp: 7.82 to 8.60

Req: State pIC50 on Falcipain-3 (Plasmodium falciparum, UniProt Q8IIL0). Entry: CCCN1CCN(c2ccc(C(=O)NN(c3nc(C#N)ncc3Br)C3CCCCC3)cc2)CC1 [Example 80, trifluoroacetate]
Resp: 6.82 to 7.82

Req: Given N#Cc1ncc(Cl)c(N(NC(=O)c2ccc(CN3CCC(O)CC3)cc2)C2CCCC2)n1 [Example 70, trifluoroacetate] , report its pIC50 on Falcipain-3 (Plasmodium falciparum, UniProt Q8IIL0).
Resp: 7.82 to 8.60

Req: # lookup: Falcipain-3 (Plasmodium falciparum, UniProt Q8IIL0) pIC50, key = CN(Cc1ccc(C(=O)NN(c2nc(C#N)ncc2Cl)C2CCCC2)cc1)C1CCCCC1 [Example 53, trifluoroacetate]
Resp: 7.82 to 8.60

Req: Jot down pIC50 (Falcipain-3 (Plasmodium falciparum, UniProt Q8IIL0)) of CN1CCN(C2CCN(Cc3ccc(C(=O)NN(c4nc(C#N)ncc4Br)C4CCCC4)cc3)CC2)CC1 [Example 10, trifluoroacetate] .
Resp: 7.82 to 8.60

====

Record form. Attribute: IC50. Fill in for each entry.
target: Falcipain-2 (Plasmodium falciparum, UniProt Q8I6U4)
Sequence (Q8I6U4 244-484): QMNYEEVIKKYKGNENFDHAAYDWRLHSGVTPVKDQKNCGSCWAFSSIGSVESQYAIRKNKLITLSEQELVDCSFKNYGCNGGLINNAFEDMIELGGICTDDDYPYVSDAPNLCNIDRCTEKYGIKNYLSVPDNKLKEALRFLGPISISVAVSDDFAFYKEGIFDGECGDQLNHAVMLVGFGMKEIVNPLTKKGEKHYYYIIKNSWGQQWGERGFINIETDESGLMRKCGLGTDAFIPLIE
testProtocol: Falcipain-2 enzymatic assay (assay 1)
Format: biochemical
Where a name gives a salt, the structure may show the parent alone.

Req: Name the recorded IC50 of the molecule listed here: CN1CCN(C2CCN(Cc3ccc(C(=O)NN(c4nc(C#N)ncc4Br)C4CCN(C(=O)OCc5ccccc5)CC4)cc3)CC2)CC1
Resp: 1 to 2.5 nM

Req: Return reported IC50. Input molecule: CN1CCN(Cc2ccc(C(=O)NN(CC(C)(C)C)c3nc(C#N)ncc3Br)cc2)CC1 [Comparative Example 39, trifluoroacetate, reference compound]
Resp: 15 to 150 nM

Req: Retrieve IC50 measured for CN(CCc1ccccc1)Cc1ccc(C(=O)NN(c2nc(C#N)ncc2Cl)C2CCCC2)cc1 [Example 62, trifluoroacetate] and print it.
Resp: < 1 nM

Req: Identify the reported IC50 for the following entry. CN1CCCC(CN2CCN(Cc3cccc(C(=O)NN(c4nc(C#N)ncc4Br)C4CCCCC4)c3)CC2)C1 (stereo not shown) [Example 27, trifluoroacetate]
Resp: < 1 nM

Req: Using known records, supply IC50 for CN1CCN(c2ncc(C(=O)NN(c3nc(C#N)ncc3Cl)C3CCCC3)s2)CC1 [Example 77, trifluoroacetate]
Resp: < 1 nM

Req: Supply IC50 value. Item: N#Cc1ncc(Br)c(N(NC(=O)c2ccc(CN3CCC(O)CC3)cc2)C2CCCCC2)n1 [Example 21, trifluoroacetate]
Resp: < 1 nM

Req: Specify measured IC50 for CN1CCN(Cc2ccc(C(=O)NN(c3nc(C#N)ncc3Cl)C3CCOCC3)cc2)CC1 [Example 67, trifluoroacetate] .
Resp: < 1 nM

Req: Output IC50 of CN1CCN(C2CCN(Cc3ccc(C(=O)NN(c4nc(C#N)ncc4Br)C4CCOCC4)cc3)CC2)CC1 [Example 29, trifluoroacetate]
Resp: < 1 nM

Req: // fetch IC50 given entry N#Cc1ncc(Br)c(N(NC(=O)c2cccc(CN3CCC(N4CCOCC4)CC3)c2)C2CCCCC2)n1 [Example 24, trifluoroacetate]
Resp: < 1 nM

Req: Item CN1CCN(Cc2ccc(C(=O)NN(c3nc(C#N)ncc3Cl)C3CCCCC3)cc2)CC1 [Example 51, trifluoroacetate] : provide IC50
Resp: 1 to 2.5 nM

Req: Using known records, supply IC50 for CC(=O)N1CCC(N(NC(=O)OC(C)(C)C)c2nc(C#N)ncc2Br)CC1
Resp: < 1 nM

Req: Name the recorded IC50 of the item CN1CCN(C2CCN(Cc3ccc(C(=O)NN(c4nc(C#N)ncc4Br)C4CCCCC4)cc3)CC2)CC1 [Example 17, trifluoroacetate] in your answer.
Resp: < 1 nM

Req: Indicate the recorded IC50 value for this molecule: CN1CCN(C2CCN(Cc3ccc(C(=O)NN(c4nc(C#N)ncc4Cl)C4CCOCC4)cc3)CC2)CC1 [Example 34, trifluoroacetate]
Resp: 1 to 2.5 nM

Req: Tell me measured IC50 for CN1CCN(C(=O)C2CCN(Cc3cccc(C(=O)NN(c4nc(C#N)ncc4Br)C4CCCC4)c3)CC2)CC1 [Example 12, trifluoroacetate] please.
Resp: < 1 nM

Req: Quote IC50 reported for CCN(Cc1ccc(C(=O)NN(c2nc(C#N)ncc2Cl)C2CCCC2)cc1)C1CCCCC1 [Example 69, trifluoroacetate] please.
Resp: < 1 nM

Req: Identify IC50 associated with the molecule C[C@@H]1CCC[C@H]1N(NC(=O)c1ccc(F)cc1)c1nc(C#N)ncc1Br (racemic)
Resp: < 1 nM
